assay: Plasma concentration in mouse xenografted with human A375M cells at 75 mg/kg, po administered as single dose in 10% HPbCD measured 8 hrs post dose by LC/MS/MS; type: ADME, organism-based; set-up: dose 75 mg/kg, route oral
recorded-metric: concentration at 8 h (µM)
# value in µM; strip the unit string

Req: Provide measured concentration at 8 h value, entry: CC(C)(N)c1cc(C(=O)N[C@@H]2CCc3ccc(Oc4ccnc5c4CCC(=O)N5)cc3C2)cc(C(F)(F)F)c1
Resp: 27

###

Assay read-out pIC50; system under study: Serine/threonine-protein kinase B-raf (Homo sapiens, UniProt P15056, V600E).
Sequence (P15056 2-766 V600E limits assumed): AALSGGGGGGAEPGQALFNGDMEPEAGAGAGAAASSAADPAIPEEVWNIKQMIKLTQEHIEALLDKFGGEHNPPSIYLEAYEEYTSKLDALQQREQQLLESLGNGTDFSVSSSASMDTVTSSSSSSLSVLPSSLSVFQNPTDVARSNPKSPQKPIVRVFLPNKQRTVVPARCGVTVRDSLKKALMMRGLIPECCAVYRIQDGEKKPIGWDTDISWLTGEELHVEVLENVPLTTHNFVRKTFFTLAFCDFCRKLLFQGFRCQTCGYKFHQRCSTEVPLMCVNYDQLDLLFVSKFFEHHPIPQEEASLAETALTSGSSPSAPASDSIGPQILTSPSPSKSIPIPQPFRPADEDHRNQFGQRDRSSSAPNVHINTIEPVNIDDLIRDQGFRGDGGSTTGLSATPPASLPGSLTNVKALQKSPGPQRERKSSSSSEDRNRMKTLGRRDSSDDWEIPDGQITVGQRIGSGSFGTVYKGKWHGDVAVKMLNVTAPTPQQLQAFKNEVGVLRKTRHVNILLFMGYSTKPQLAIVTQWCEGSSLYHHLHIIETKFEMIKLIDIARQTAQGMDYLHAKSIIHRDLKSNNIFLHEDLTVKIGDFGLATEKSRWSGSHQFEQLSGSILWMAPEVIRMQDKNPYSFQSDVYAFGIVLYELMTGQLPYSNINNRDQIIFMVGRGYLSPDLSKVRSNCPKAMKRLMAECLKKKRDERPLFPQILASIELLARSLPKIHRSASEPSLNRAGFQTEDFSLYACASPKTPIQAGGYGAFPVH
// field semantics: pIC50 = negative decimal log of concentration (mol/L)

// known answers, use as guide
CNC(=O)c1cc(Oc2ccc3c(c2)CC(C(=O)Nc2ccc(Cl)c(C(F)(F)F)c2)CC3)ccn1 (racemic)
7.49
NCc1cc(NC(=O)[C@@H]2CCc3ccc(Oc4ccnc(NC(=O)C5CC5)c4)cc3C2)cc(C(F)(F)F)c1
8.22
CN(C)Cc1cc(NC(=O)[C@H]2CCc3ccc(Oc4ccnc(NC(=O)C5CC5)c4)cc3C2)cc(C(F)(F)F)c1
8.40
CC(C)NCc1cc(NC(=O)[C@H]2CCc3ccc(Oc4ccnc5c4CCC(=O)N5)cc3C2)cc(C(F)(F)F)c1
8.48
CNC(=O)c1cc(Oc2ccc3c(c2)CC(C(=O)Nc2ccc(CN)c(C(F)(F)F)c2)CC3)ccn1 (stereo not drawn)
7.59

Req: Provide measured pIC50 value, entry: CN(C)Cc1cc(C(=O)N[C@@H]2CCc3ccc(Oc4ccnc(NC(=O)C5CC5)c4)cc3C2)cc(C(F)(F)F)c1
Resp: 8.54

Req: Provide measured pIC50 value, entry: NCc1cc(NC(=O)[C@H]2CCc3ccc(Oc4ccnc(NC(=O)C5CC5)c4)cc3C2)cc(C(F)(F)F)c1
Resp: 8.30

Req: Provide measured pIC50 value, entry: CN(C)Cc1cc(C(=O)N[C@H]2CCc3ccc(Oc4ccnc(NC(=O)C5CC5)c4)cc3C2)cc(C(F)(F)F)c1
Resp: 8.49
